IC50 for assorted molecules
# TARGET: recombinant human ALK enzyme (ALK WT) (Homo sapiens)
# Construct: purchased Carna Biosciences 08-518
# Sequence (Q9UM73 1058-1620 limits assumed): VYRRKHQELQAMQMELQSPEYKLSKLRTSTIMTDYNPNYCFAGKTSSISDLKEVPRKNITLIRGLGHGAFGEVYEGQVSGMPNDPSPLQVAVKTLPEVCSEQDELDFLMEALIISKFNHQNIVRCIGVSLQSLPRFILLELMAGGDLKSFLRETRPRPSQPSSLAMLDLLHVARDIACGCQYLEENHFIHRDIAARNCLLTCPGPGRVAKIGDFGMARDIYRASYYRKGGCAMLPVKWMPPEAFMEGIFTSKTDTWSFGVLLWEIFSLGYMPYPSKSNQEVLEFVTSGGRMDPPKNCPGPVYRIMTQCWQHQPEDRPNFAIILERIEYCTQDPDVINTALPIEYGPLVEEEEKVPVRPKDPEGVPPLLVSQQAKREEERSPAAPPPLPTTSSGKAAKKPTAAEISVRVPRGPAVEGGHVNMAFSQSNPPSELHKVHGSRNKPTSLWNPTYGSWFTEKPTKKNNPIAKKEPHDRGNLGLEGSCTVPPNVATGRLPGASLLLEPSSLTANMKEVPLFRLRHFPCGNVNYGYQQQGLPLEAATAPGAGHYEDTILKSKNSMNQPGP
# EXPERIMENTAL DETAILS: ALK WT cell free enzymatic assay (TR-FRET)
# Format: biochemical
# EXPERIMENTAL SETUP: 10 point dose response; 1 μM ATP

Solved cases below.
# SMILES REPRESENTATION, IC50
rows = [
    ("Cc1nn(Cc2cc(F)cc(F)c2)c(C)c1-c1c[nH]c2ncc(-c3ccc(F)c(NS(C)(=O)=O)c3)cc12", "50 to 250 nM"),
    ("COc1ccc(-c2cnc3[nH]cc(-c4cnn(CCc5ccccc5)c4)c3c2)cc1NS(C)(=O)=O", "< 50 nM"),
    ("COc1ccc(-c2cnc3[nH]cc(-c4cnn(CCc5cccc(F)c5)c4)c3c2)cc1NS(C)(=O)=O", "< 50 nM"),
]

Value sought: IC50, system recombinant human ALK enzyme (ALK WT) (Homo sapiens), item "CN(C)CC(=O)N1CCN(c2ccc(-c3cnc4[nH]cc(-c5cnn(Cc6cccc(F)c6)c5)c4c3)cc2)CC1" . Result: < 50 nM

Entry "CNS(=O)(=O)c1cc(-c2cnc3[nH]cc(-c4c(C)nn(Cc5cc(F)cc(F)c5)c4C)c3c2)ccc1OC" , tested on recombinant human ALK enzyme (ALK WT) (Homo sapiens), has a reported IC50 of < 50 nM
